Where these numbers come from: patent US8471004B2

targetUnderTest: human chemokine receptor 2 isoform B (Homo sapiens, UniProt P41597)
Sequence (P41597 1-360 isoform P41597-2): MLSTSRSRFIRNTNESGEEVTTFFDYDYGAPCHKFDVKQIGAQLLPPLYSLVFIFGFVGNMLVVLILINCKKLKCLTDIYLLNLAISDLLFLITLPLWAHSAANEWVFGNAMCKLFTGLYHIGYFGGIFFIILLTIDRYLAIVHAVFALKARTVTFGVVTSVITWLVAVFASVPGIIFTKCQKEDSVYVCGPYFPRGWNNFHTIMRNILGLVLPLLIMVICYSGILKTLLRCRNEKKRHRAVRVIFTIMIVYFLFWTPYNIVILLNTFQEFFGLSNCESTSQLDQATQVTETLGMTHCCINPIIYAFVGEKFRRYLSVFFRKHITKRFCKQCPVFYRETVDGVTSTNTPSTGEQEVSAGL
testSummary: Calcium mobilization assay (CHOK1-CCR2B-A5 cells, FLIPR, MCP-1 stimulated)
measurementParameters: Ca mobilisation assay for CCR2, antagonist activity, 50% inhibition of specific calcium increases after 20 nM MCP-1
recordedMetric: pIC50
Bear in mind: pIC50 is minus log10 of a mol/L concentration; give just that figure.

Examples from the recorded data:
C[C@H]1C(=O)N2[C@@H](CCN3CCC4(CC4)[C@H](O)C3)CO[C@]2(C)CN1C(=O)Nc1ccc(Cl)c(Cl)c1 7.95
C[C@H]1C(=O)N2[C@@H](CCN3CCC4(CC4)[C@H](O)C3)CCC[C@H]2CN1C(=O)Nc1cccc(Cl)c1 8.52

We next turn to a different molecule, shown below.
Using the record for C[C@H]1C(=O)N2[C@@H](CCN3CCC4(CC4)[C@H](O)C3)CO[C@@H]2CN1C(=O)Nc1ccc(F)c(Cl)c1 , state its measured pIC50.
7.60

---

targetUnderTest: human chemokine receptor 2 isoform B (Homo sapiens, UniProt P41597)
testSummary: Calcium mobilization assay (CHOK1-CCR2B-A5 cells, FLIPR, MCP-1 stimulated)
measurementParameters: Ca mobilisation assay for CCR2, antagonist activity, 50% inhibition of specific calcium increases after 20 nM MCP-1
pIC50: −log10 of the molar value.
Where pIC50 equals or exceeds 7, the correct label is Yes; where it does not, the label is No.

Field: example entries. Status: answers known.
molecule	label
C[C@H]1C(=O)N2[C@@H](CCN3CCC4(CC4)C(F)(F)C3)COC[C@H]2CN1C(=O)Nc1ccc(Cl)c(Cl)c1	Yes
C[C@H]1C(=O)N2[C@@H](CCC(=O)N3CCC4(CC4)[C@H](O)C3)COC2(C)CN1C(=O)Nc1ccc(C(F)(F)F)c(Cl)c1 (stereo partly drawn)	No
C[C@H]1C(=O)N2[C@@H](CCC(=O)N3CCC4(CC4)[C@H](O)C3)CCC[C@H]2CN1C(=O)/C=C/c1ccc(F)c(Cl)c1	No
C[C@H]1C(=O)N2[C@@H](CCC(=O)N3CCC4(CC4)[C@H](O)C3)CO[C@@H]2CN1C(=O)Nc1ccc(Cl)c(Cl)c1	Yes
C[C@H]1C(=O)N2[C@@H](CCC(=O)N3CCC4(CC4)[C@H](O)C3)CO[C@H]2CN1C(=O)/C=C/c1ccc(F)c(Cl)c1	Yes

Confirm if pIC50 reported for the molecule C[C@H]1C(=O)N2[C@@H](CCCN3CCC4(CC4)[C@H](O)C3)COC2(C)CN1C(=O)Nc1ccc(Cl)c(Cl)c1 (stereo partly drawn) is 7 or above.
Yes

Confirm if pIC50 reported for the molecule C[C@H]1C(=O)N2[C@@H](CCCN3CCC4(CC4)[C@H](O)C3)CC[C@H]2CN1C(=O)Nc1ccc(Cl)c(Cl)c1 is 7 or above.
Yes

Confirm if pIC50 reported for the molecule C[C@H]1C(=O)N2[C@@H](CCCN3CCC4(CC4)[C@H](O)C3)CO[C@H]2CN1C(=O)Nc1ccc(Cl)c(Cl)c1 is 7 or above.
Yes

---

targetUnderTest: human chemokine receptor 2 isoform B (Homo sapiens, UniProt P41597)
testSummary: Calcium mobilization assay (CHOK1-CCR2B-A5 cells, FLIPR, MCP-1 stimulated)
measurementParameters: Ca mobilisation assay for CCR2, antagonist activity, 50% inhibition of specific calcium increases after 20 nM MCP-1
recordedMetric: IC50 (nM)
Express your answer in nM, writing the number without its unit.

compound	IC50, nM
C[C@H]1C(=O)N2[C@H](CCN3CCC4(CC4)[C@H](O)C3)CCC[C@@H]2CN1C(=O)Nc1ccc(Cl)c(Cl)c1 [Example 39]	135
C[C@H]1C(=O)N2C(CN1C(=O)Nc1cccc(C(F)(F)F)c1)OC[C@@H]2CCN1CCC2(CC2)[C@H](O)C1 (stereo partly shown)	67.9
C[C@H]1C(=O)N2[C@@H](CCN3CCC4(CC4)[C@H](O)C3)CO[C@H]2CN1C(=O)Nc1ccc(F)c(Cl)c1	72

We next turn to a different compound, shown below.
Write down measured IC50 (human chemokine receptor 2 isoform B (Homo sapiens, UniProt P41597)) for this compound. C[C@H]1C(=O)N2[C@@H](CCCN3CCCC(F)(F)C3)CC[C@H]2CN1C(=O)Nc1ccc(Cl)c(Cl)c1
67.4
